The reader will find reported pIC50 values listed item by item below.
# target-or-system: BRD4 (Homo sapiens, UniProt O60885)
# protocol-summary: Differential Scanning Fluorimetry (DSF), stability of BRD4 upon ligand binding
# details: estimated
Lab note — pIC50 values are minus log10 of concentrations in M.

CC(C)(C)NS(=O)(=O)c1cccc(Nc2nc(Nc3ccc(N4CCOCC4)cc3)ncc2Cl)c1: 4.64
CN1CCC(NC(=O)c2ccc(Nc3ncc(Cl)c(Nc4ccc(Cl)c(NS(=O)(=O)C(C)(C)C)c4)n3)cc2F)CC1: 7.98
Cc1ccc(Nc2nc(Nc3ccc(N4CCN(C)CC4)cc3)ncc2C)cc1S(=O)(=O)NC1CCC1: 6.89
Cc1cnc(Nc2ccc(N3CCN(C)CC3)cc2)nc1Nc1ccc(Cl)c(NS(=O)(=O)CC(C)C)c1: 6.66

Input: Annotate the compound `COc1cc(Nc2nc(Nc3ccc(N4CCN(C)CC4)cc3)ncc2C)c(OC)cc1Cl` with its measured pIC50.
Output: 4.85

Input: Supply measured pIC50 of `Cc1cnc(Nc2ccc(N3CCN(C)CC3)c(F)c2)nc1Nc1ccc2c(c1)N(S(=O)(=O)C(C)(C)C)CC2` in your reply.
Output: 8.01

Input: For `Cc1cnc(Nc2cc(F)c(N3CCN(C)CC3)c(F)c2)nc1Nc1ccc(Cl)c(NS(=O)(=O)C(C)(C)C)c1` , write its pIC50.
Output: 8.48

Input: Give the measured pIC50 for `Cc1nc(Nc2ccc(N3CCOCC3)cc2)nc(Nc2cccc(S(=O)(=O)NC(C)(C)C)c2)c1C`
Output: 5.30

Input: Specify measured pIC50 for `CN1CCN(c2ccc(Nc3ncc(Cl)c(Nc4cccc(C(C)(C)C)c4)n3)cc2)CC1` .
Output: 4.70

* * *

# target-or-system: BRD4 (Homo sapiens)
# protocol-summary: Differential Scanning Fluorimetry (DSF), stability of BRD4 upon ligand binding
# details: estimated
# Method: DSF=Differential Scanning Fluorimetry; provides a measure of the increased stability of BRD4 upon ligand binding The DSF experiment was run at 100 μM protein, 4 μM compound and 2% DMSO.
pIC50: −log10 of the molar value.
We use 6 as the dividing line for pIC50: on or above the line is yes (1), below is no (0).

Cc1cnc(Nc2ccc(N3CCN(C)CC3)cc2)nc1Nc1cccc(NC(=O)NC(C)C)c1: no (0)

Now for another entry.
Input: Say whether `COc1cc(C(=O)NC2CCN(C)CC2)ccc1Nc1ncc(C)c(Nc2cc(OC)c(Cl)c(OC)c2)n1` shows pIC50 of 6 or more.
Output: no (0)

* * *

# target-or-system: UniProt O60885
# protocol-summary: Differential Scanning Fluorimetry (DSF), stability of BRD4 upon ligand binding
# details: 100 μM protein, 4 μM compound and 2% DMSO
assay-readout: ΔTm at 4 µM (°C)
Output spec: scalar in °C, unitless text.

Cc1nc(Nc2ccc(N3CCN(C)CC3)cc2)nc(Nc2cccc(S(=O)(=O)NC(C)(C)CO)c2)c1C: 5.5

Input: Quote UniProt O60885 ΔTm at 4 µM for entry `CN1CCN(c2ccc(Nc3ncc(C(N)=O)c(Nc4cccc(S(=O)(=O)NC(C)(C)C)c4)n3)cc2)CC1` .
Output: 2.7

Input: State ΔTm at 4 µM on UniProt O60885. Entry: `Cc1cnc(Nc2ccc(N3CCN(C)CC3)cc2)nc1Nc1cccc(NC(=O)C(C)(C)C)c1`
Output: 3.5

Input: Name the value of ΔTm at 4 µM reported for `COc1cc(Nc2nc(Nc3ccc(N4CCN(C)CC4)cc3)ncc2C)c(OC)cc1Cl` when tested on UniProt O60885.
Output: 0.57

* * *

# target-or-system: BRD4 (Homo sapiens)
# protocol-summary: Differential Scanning Fluorimetry (DSF), stability of BRD4 upon ligand binding
# details: estimated
assay-readout: IC50
Report the figure along with its unit, number first.

CC(C)(C)c1cccc(Nc2nc(Nc3ccc(N4CCOCC4)cc3)ncc2Cl)c1: 28.2 µM
COc1cc(Nc2nc(Nc3ccc(N4CCN(C)CC4)cc3)ncc2C)ccc1Cl: 0.29 µM
COc1cc(Nc2nc(Nc3ccc(N4CCN(C)CC4)cc3)nc(C)c2C)ccc1Cl: 0.93 µM
CC(C)NS(=O)(=O)c1cccc(Nc2nc(Nc3ccc(N4CCOCC4)cc3)ncc2Br)c1: 39.8 µM
CN1CCN(c2ccc(Nc3ncc(F)c(Nc4cccc(NS(=O)(=O)C(C)(C)C)c4)n3)cc2)CC1: 0.4 µM

Input: Output measured IC50 for this item: `COc1cc(Nc2nc(Nc3ccc(C(=O)NC4CCN(C)CC4)cc3)ncc2C)cc(OC)c1Cl`
Output: 2.3 µM

Input: Could you please provide reported IC50 for `COc1ccc(Nc2nc(Nc3ccc(N4CCN(C)CC4)cc3)ncc2C)cc1OC` ? Thanks!
Output: 0.29 µM

Input: Supply IC50 value. Item: `Cc1cnc(Nc2ccc(N3CCN(C)CC3)c(F)c2)nc1Nc1cccc(NS(=O)(=O)C2(C)CC2)c1`
Output: 0.02 µM

Input: Tell me IC50 reported for `CN1CCN(C(=O)Cc2ccc(Nc3ncc(F)c(Nc4ccc(C(=O)NC5CC5)cc4)n3)cc2)CC1`
Output: 0.85 µM

Input: Query IC50 for `Cc1cnc(Nc2ccc(C(=O)NC3CCN(C)CC3)c(F)c2)nc1Nc1ccc2c(c1)N(S(=O)(=O)C(C)(C)C)CC2`
Output: 0.0086 µM

Input: Please look at this compound and report its IC50: `COc1ccc(Nc2nc(Nc3ccc(N4CCN(C)CC4)cc3)ncc2Cl)cc1OC`
Output: 0.43 µM

Input: Supply measured IC50 of `Cc1cnc(Nc2ccc(N3CCN(C)CC3)cc2)nc1Nc1cccc(NS(=O)(=O)CC(C)C)c1` in your reply.
Output: 0.347 µM

Input: Specify reported IC50 for the compound shown: `COc1cc(Nc2nc(Nc3ccc(N4CCN(C)CC4)cc3)ncc2Cl)ccc1Cl`
Output: 0.54 µM

* * *

# target-or-system: BRD4 (Homo sapiens, UniProt O60885)
# protocol-summary: Differential Scanning Fluorimetry (DSF), stability of BRD4 upon ligand binding
# details: estimated
assay-readout: IC50

Cc1cnc(Nc2ccc(N3CCN(C)CC3)cc2)nc1Nc1ccc(Cl)c(NS(=O)(=O)c2ccccc2)c1: 0.96 µM

Input: Give the reported value of IC50 for this record: `COc1cc(Nc2nc(Nc3ccc(N4CCN(C)CC4)cc3)ncc2C)cc(OC)c1OC`
Output: 0.11 µM

Input: Identify measured IC50 associated with `COc1cc(Nc2nc(Nc3ccc(N4CCNCC4)cc3)ncc2Br)ccc1Cl`
Output: 0.68 µM

Input: Answer with the recorded IC50 for the compound listed here: `Cc1nc(Nc2ccc(N3CCN(C)CC3)cc2)nc(Nc2cccc(S(=O)(=O)NC(C)(C)CO)c2)c1C`
Output: 0.32 µM

Input: Using known records, supply IC50 for `Cc1cnc(Nc2ccc(N3CCN(C)CC3)cc2)nc1Nc1cccc([N+](=O)[O-])c1`
Output: 3.13 µM

Input: Return the recorded IC50 value; entry: `Cc1cnc(Nc2ccc(N3CCN(C)CC3)cc2)nc1Nc1cccc(NS(=O)(=O)C2(C)CC2)c1`
Output: 0.068 µM

Input: Give the reported value of IC50 for this record: `CCc1cnc(Nc2ccc(N3CCOCC3)cc2)nc1Nc1cccc(S(=O)(=O)NC(C)C)c1`
Output: 27.1 µM

Input: Assign IC50 to the following record: `Cc1cnc(Nc2ccc(N3CCN(C)CC3)cc2)nc1Nc1cccc(OC(C)C)c1`
Output: 0.14 µM

Input: Report measured IC50; entry is `COc1cc(Nc2nc(Nc3ccc(N4CCN(C)CC4)cc3)nc3ccccc23)ccc1Cl`
Output: 0.5 µM

Input: Could you please provide reported IC50 for `CN1CCN(c2ccc(Nc3ncc(Cl)c(Nc4ccc(Cl)c(NS(=O)(=O)C(C)(C)C)c4)n3)cc2F)CC1` ? Thanks!
Output: 0.835 µM

Input: Identify measured IC50 corresponding to `Cc1cnc(Nc2ccc(N3CCN(C)CC3)cc2)nc1Nc1cccc(NS(=O)(=O)C(C)C)c1`
Output: 0.066 µM

Input: Please report the measured IC50 for `CN1CCN(c2ccc(Nc3nc(Nc4cccc(NS(=O)(=O)C5CC5)c4)c4ccccc4n3)cc2)CC1`
Output: 0.26 µM

Input: // fetch IC50 given entry `CN1CCN(c2ccc(Nc3nc4c(c(Nc5cccc(NS(=O)(=O)C6CC6)c5)n3)COC4)cc2)CC1`
Output: 7.9 µM

* * *

# target-or-system: BRD4 (Homo sapiens)
# protocol-summary: Differential Scanning Fluorimetry (DSF), stability of BRD4 upon ligand binding
# details: estimated
The following compounds are shown together with reported pIC50 values.
Conceptually, pIC50 converts a concentration in mol/L into minus its log10.

COc1cc(Nc2ccnc(Nc3ccc(N4CCN(C)CC4)cc3)n2)ccc1Cl: 5.49
CN1CCN(c2ccc(Nc3nc4c(c(Nc5ccc(Cl)c(NS(=O)(=O)C6CC6)c5)n3)COC4)cc2)CC1: 6.46
Cc1nc(Nc2ccc(N3CCN(C)CC3)cc2)nc(Nc2cccc(S(=O)(=O)NC(C)(C)C)c2)c1C: 6.43
Cc1cnc(Nc2ccc(N3CCN(C)CC3)cc2)nc1Nc1ccc(F)c(NS(=O)(=O)C(C)(C)C)c1: 7.85

Input: Consider the compound `Cc1cnc(Nc2ccc(N3CCN(C)CC3)cc2)nc1Nc1ccc2c(c1)OCO2` and give its recorded pIC50.
Output: 4.92

Input: Please indicate pIC50 recorded for `COc1cccc(Nc2nc(Nc3ccc(N4CCN(C)CC4)cc3)ncc2C)c1`
Output: 5.73

Input: Find the measured pIC50 of `COc1cc(Nc2nc(Nc3ccc(N4CCN(C)CC4)cc3)ncc2Cl)cc(OC)c1` and report it.
Output: 5.82

Input: Identify the reported pIC50 for the following entry. `CN1CCN(c2ccc(Nc3ncc(Cl)c(Nc4ccc5c(c4)OCCO5)n3)cc2)CC1`
Output: 5.53

Input: Answer with the recorded pIC50 for the compound listed here: `Cc1ccc(Nc2nc(Nc3ccc(N4CCN(C)CC4)c(F)c3)ncc2C)cc1S(=O)(=O)NC1CCC1`
Output: 6.92

Input: Indicate the recorded pIC50 value for this compound: `CCOc1cc(Nc2nc(Nc3ccc(N4CCN(C)CC4)cc3)ncc2C)ccc1Cl`
Output: 6.80
